System: HepG2-TP53BP1-CLTA
Experiment summary: phenotypically active (imaging signature differs from DMSO and reproducible) at any of 0.3-9 uM (binary (1 = active, 0 = inactive)); higher = active
Condition: treatment time: 24 h
Counter-ions that a name gives are not always drawn.
Outcome (select one): yes (active), no (inactive)

Reference set (3 entries):
C/N=C(\NC#N)NCCSCc1nc[nH]c1C :: no
CCCC(=O)Nc1ncnc2c1ncn2[C@@H]1O[C@@H]2COP(=O)(O)O[C@H]2[C@H]1OC(=O)CCC [Dibutyryl-cAMP, sodium salt] :: no
CC[N+](CC)(CC)CCOc1cccc(OCC[N+](CC)(CC)CC)c1OCC[N+](CC)(CC)CC [gallamine-triethiodide] :: no

Query string: Would you mind telling me which call this test gave CN1C(CSCC(F)(F)F)Nc2cc(Cl)c(S(N)(=O)=O)cc2S1(=O)=O (stereo not drawn) [polythiazide] ?
Result string: no

Query string: Would you mind telling me which call this test gave "NC(=O)[C@@H](CCC(F)(F)F)N(Cc1ccc(-c2ncon2)cc1F)S(=O)(=O)c1ccc(Cl)cc1" ?
Result string: no

Query string: Would you mind telling me which call this test gave CC(C)c1cnn2c(NCc3ccccc3)cc(NCCCCCCN)nc12 [BS 181 dihydrochloride] ?
Result string: no

Query string: Would you mind telling me which call this test gave "COc1c(C)cnc(Cn2cnc3c(Cl)nc(N)nc32)c1C" ?
Result string: yes

Query string: Would you mind telling me which call this test gave "S=c1[nH]cnc2nc[nH]c12" ?
Result string: no
